Species on record: Cavia porcellus
Test: In vitro inhibition of spontaneous tone of guinea pig tracheal spirals
Type: functional
Conditions: Trachea
pIC50: −log10 of the molar value.
endpoint.name: pIC50

Please state, for each entry, its recorded pIC50.
1. CC1(C)C(=O)c2ccc(C#N)cc2C(N2CCCC2=O)[C@@H]1O (stereo partly drawn)
2. CC(=O)N(C)c1ccc2c(c1)[C@@H](n1ccccc1=O)[C@H](O)C(C)(C)C2=O
3. CC1(C)C(=O)c2ccc(Br)cc2C(N2CCCC2=O)[C@@H]1O (stereo partly drawn)

## Result
1. < 5.00
2. < 5.00
3. < 5.00

* * *

System: Rattus norvegicus
Assay: Effective dose (after peroral administration) required to decrease systolic blood pressure by 30 mmHg in spontaneously hypertensive rats (SHR)
Assay type: functional
Conditions: Artery, po
endpoint.name: ED30 (µg/kg)
Numbers only, in µg/kg.

Reference set, count: 2
chemical.string	ED30, µg/kg
CC1(C)C=C(n2ccccc2=O)c2cc(C#C[Si](C)(C)C)ccc2C1=O	5
CC1(C)Oc2ccc(C#N)cc2[C@@H](N2CCCC2=O)[C@@H]1O	10

## Task Look at this molecule and give its reported ED30. "CC1(C)C=C(n2ccccc2=O)c2cc(C(F)(F)F)ccc2C1=O"
## Result 5
